# System: RARg homodimer (NR concentration 270 nM)
# run description: PBM binding z-score (relative to random genomic background probes); higher = stronger binding; sequences stand for … in GC…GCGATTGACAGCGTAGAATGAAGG
reported metric: PBM binding z-score

| residue codes | system tested | PBM binding z-score |
| --- | --- | --- |
| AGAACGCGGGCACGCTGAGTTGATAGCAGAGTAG | RARg homodimer (NR concentration 270 nM) | 0.351 |
| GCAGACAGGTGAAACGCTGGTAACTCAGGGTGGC | RARg homodimer (NR concentration 270 nM) | -0.138 |
| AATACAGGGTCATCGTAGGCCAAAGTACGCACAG | RARg homodimer (NR concentration 270 nM) | 5.3 |
| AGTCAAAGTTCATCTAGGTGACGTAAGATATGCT | RARg homodimer (NR concentration 270 nM) | 5.9 |
| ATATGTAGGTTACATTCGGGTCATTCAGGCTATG | RARg homodimer (NR concentration 270 nM) | 2.05 |

Here is another sequence to look at.
### Prompt Fill in PBM binding z-score for record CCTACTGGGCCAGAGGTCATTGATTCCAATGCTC
### Response 3.89

---

# System: LXRa homodimer (NR concentration 270 nM)
# run description: PBM binding z-score (relative to random genomic background probes); higher = stronger binding; sequences stand for … in GC…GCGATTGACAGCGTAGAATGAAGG
Param threshold (0.04) applies to PBM binding z-score; output true when value >= threshold, false when value < threshold.

Some entries whose results are on file:
| residue codes | class assignment |
| --- | --- |
| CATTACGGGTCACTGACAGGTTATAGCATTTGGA | true |
| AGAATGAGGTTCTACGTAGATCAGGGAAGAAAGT | false |
| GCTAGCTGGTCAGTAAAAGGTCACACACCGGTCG | true |
| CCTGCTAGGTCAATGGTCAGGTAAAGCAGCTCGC | false |
| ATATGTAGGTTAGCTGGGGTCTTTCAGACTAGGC | true |

### Prompt Quick check: does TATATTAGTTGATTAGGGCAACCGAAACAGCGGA have PBM binding z-score greater than or equal to 0.04?
### Response true

### Prompt Given the entry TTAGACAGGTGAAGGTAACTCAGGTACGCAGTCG , answer whether its PBM binding z-score meets or surpasses 0.04.
### Response false

### Prompt Hi, just wondering whether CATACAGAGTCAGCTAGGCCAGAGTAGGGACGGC shows PBM binding z-score of 0.04 or higher.
### Response false

---

# Test system: PPARg DBDmut IVT, anti-PPARg (DBD mutation: PPARg1 K132A/R137A, NR concentration 270 nM)
# run description: PBM binding z-score (relative to random genomic background probes); higher = stronger binding; sequences stand for … in GC…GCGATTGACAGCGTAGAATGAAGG
PBM binding z-score vs 0.9: at or above is YES, below is NO.

Examples with answers:
| residue codes | class assignment |
| --- | --- |
| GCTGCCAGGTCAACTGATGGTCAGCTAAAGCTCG | NO |
| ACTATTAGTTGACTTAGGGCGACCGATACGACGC | YES |
| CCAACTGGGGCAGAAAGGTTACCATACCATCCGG | NO |
| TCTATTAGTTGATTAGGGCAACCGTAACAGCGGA | YES |

### Prompt Does PBM binding z-score meet or surpass 0.9 for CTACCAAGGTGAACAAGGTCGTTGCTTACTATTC ?
### Response NO

### Prompt Does PBM binding z-score meet or surpass 0.9 for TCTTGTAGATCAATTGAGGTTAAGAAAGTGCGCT ?
### Response YES

### Prompt Answer whether PBM binding z-score of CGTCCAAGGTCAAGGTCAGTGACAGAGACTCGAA is greater than or equal to 0.9.
### Response NO

### Prompt Given the entry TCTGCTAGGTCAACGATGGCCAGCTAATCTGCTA , answer whether its PBM binding z-score meets or surpasses 0.9.
### Response NO

### Prompt API: above_or_equal(metric=PBM binding z-score, cutoff=0.9) for item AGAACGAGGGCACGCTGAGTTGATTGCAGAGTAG
### Response NO

### Prompt // inclusive: PBM binding z-score at least 0.9? input: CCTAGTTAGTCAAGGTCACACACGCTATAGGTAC
### Response YES

### Prompt Can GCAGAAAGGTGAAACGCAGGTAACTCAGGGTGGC be said to have PBM binding z-score at or above 0.9?
### Response NO

### Prompt Quick check: does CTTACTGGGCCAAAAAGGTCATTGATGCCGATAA have PBM binding z-score greater than or equal to 0.9?
### Response YES
